Biological target: 5-hydroxytryptamine receptor 1A (Rattus norvegicus)
Experiment: Binding affinity to rat 5HT1A at 1 uM
Give inhibition for every item shown.
One number for each entry, in %.

Please review the entries below; each comes with its answer.
INSERT INTO assay_data (structuresmilesstring, attributemeasured, quantitativereadout) VALUES
  ('Cc1ccccc1-c1cccc(CCN)c1', 'inhibition', 37),
  ('COc1ccccc1-c1cccc(CCN(C)C)c1', 'inhibition', 48),
  ('CN(C)CCc1cccc(-c2ccsc2)c1', 'inhibition', 64),
  ('Cc1cccc(C)c1-c1cccc(CCN(C)C)c1', 'inhibition', 33),
  ('CN(C)CCc1cccc(-c2cccs2)c1', 'inhibition', 63),
  ('COc1ccc(-c2cccc(CCN(C)C)c2)cc1', 'inhibition', 37);

Lab note: each compound below needs its inhibition filled in.
1. Cc1ccccc1-n1ccc(CCN)c1
2. Cc1cc(C)c(-n2ccc(CCN)c2)c(C)c1
3. COc1ccc(-c2cccc(CCN(C)C)c2)cc1OC
4. COc1cccc(OC)c1-c1cccc(CCN2CCOCC2)c1

Result string:
16
0
52
14

Lab note: each compound below needs its inhibition filled in.
1. CN(C)CCc1cccc(-c2ccccc2)c1
2. Cc1ccccc1-n1ccc(CCN(C)C)c1
3. Cc1ccccc1-c1cccc(CCN(C)C)c1
4. COc1cccc(OC)c1-c1cccc(CCN(C)C)c1

Result string:
1. 18
2. 41
3. 85
4. 18

Lab note: each compound below needs its inhibition filled in.
1. Cc1cccc(-n2ccc(CCN)c2)c1C
2. Cc1cc(C)c(-n2ccc(CCN(C)C)c2)c(C)c1

Result string:
1: 17; 2: 20

---

Molecular target: 5-hydroxytryptamine receptor 7 (Homo sapiens, UniProt P34969)
Sequence (P34969 whole entry): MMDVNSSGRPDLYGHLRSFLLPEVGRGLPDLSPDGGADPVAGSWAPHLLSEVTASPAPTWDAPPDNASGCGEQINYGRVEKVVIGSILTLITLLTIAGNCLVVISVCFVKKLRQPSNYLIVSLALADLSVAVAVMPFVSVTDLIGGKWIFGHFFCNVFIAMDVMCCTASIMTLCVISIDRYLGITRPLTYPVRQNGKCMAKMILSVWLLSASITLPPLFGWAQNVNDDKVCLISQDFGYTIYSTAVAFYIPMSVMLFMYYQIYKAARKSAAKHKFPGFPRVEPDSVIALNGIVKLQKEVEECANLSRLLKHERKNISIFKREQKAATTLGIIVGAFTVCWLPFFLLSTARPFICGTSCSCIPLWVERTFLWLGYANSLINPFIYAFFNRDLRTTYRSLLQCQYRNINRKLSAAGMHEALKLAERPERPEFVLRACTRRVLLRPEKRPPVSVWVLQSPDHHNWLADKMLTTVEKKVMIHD
Assay: Displacement of [3H]LSD from human 5HT7 in sf9 cells
attributeMeasured: pKi
One number for each entry, as −log10 of the molar value.

INSERT INTO results (structuresmilesstring, quantitativereadout) VALUES
  ('COc1ccccc1-c1cccc(CCN(C)C)c1', 8.08);

Lab note: each molecule below needs its pKi filled in.
1. Cc1ccccc1-c1cccc(CCN(C)C)c1
2. Cc1ccccc1-c1cccc(CCN)c1
3. Cc1cccc(C)c1-c1cccc(CCN(C)C)c1
4. COc1cccc(OC)c1-c1cccc(CCN(C)C)c1

Result string:
8.12
8.12
8.21
8.07

---

Target: 5-hydroxytryptamine receptor 7 (Homo sapiens)
Test: Displacement of [3H]LSD from human 5HT7 in sf9 cells at 1 uM
Format: cell-based
attributeMeasured: inhibition (%)
Give bare numbers, in %.

INSERT INTO results (structuresmilesstring, quantitativereadout) VALUES
  ('Cc1ccccc1-c1cccc(CCN)c1', 92),
  ('Cc1ccccc1-n1ccc(CCN(C)C)c1', 87);

From here, focus on the item given below.
Value of measured inhibition for the entry CN(C)CCc1cccc(-c2ccsc2)c1 : 87

---

Target: 5-hydroxytryptamine receptor 7 (Homo sapiens)
Assay: Displacement of [3H]LSD from human 5HT7 in sf9 cells at 0.01 uM
Assay type: cell-based
# label = yes if inhibition >= 10% else no

As a guide, the following entries are already answered.
INSERT INTO assay_data (structuresmilesstring, labelvalue) VALUES
  ('CN(C)CCc1cccc(-c2ccccc2)c1', 'yes'),
  ('Cc1ccccc1-c1cccc(CCN(C)C)c1', 'yes'),
  ('COc1ccc(-c2cccc(CCN(C)C)c2)cc1OC', 'no'),
  ('COc1cccc(OC)c1-c1cccc(CCN(C)C)c1', 'yes');

Query string: Record CN(C)CCc1cccc(-c2ccsc2)c1 ; criterion: inhibition no lower than 10%. Met?
Result string: yes

Query string: Record Cc1ccccc1-n1ccc(CCN)c1 ; criterion: inhibition no lower than 10%. Met?
Result string: no

// data source = ChEMBL document CHEMBL1147987
